Hello, the source for this data is PubChem BioAssay (EPA / NIEHS), in case you need it.

# Experimental details: CCTE_Shafer_MEA_acute_spike_number: CCTE's Neural Acute Assay for Total Number of Spikes, Shafer Lab (AID 2284008)
Active and inactive are the calls of the source. How the source made its calls: active means hit-call score of the fitted dose curve at least 0.9, where 1 is the maximum; inactive means score below 0.9.
Field 'call' accepts active, inactive

These recorded examples may help you get a feel for the data.
[Q] Tell me the recorded outcome of this test for CCCCCCCCCCCCO .
[A] inactive

[Q] Next entry: CN1C(=O)CC[C@H]1c1cccnc1
[A] inactive

[Q] Next entry: CC[C@@H]1C[C@H](N(Cc2cc(C(F)(F)F)cc(C(F)(F)F)c2)C(C)=O)c2cc(C(F)(F)F)ccc2N1C(=O)OC(C)C
[A] inactive

[Q] Next entry: CCCCCCCCOC(=O)c1cc(O)c(O)c(O)c1
[A] active

[Q] Next entry: CC/C(=C(/CC)c1ccc(O)cc1)c1ccc(O)cc1
[A] active

---
[Q] Tell me the recorded outcome of this test for CCN(CC)C(=O)c1cc(S(=O)(=O)Cc2ccccc2)c(N2CCC(c3ccccc3)CC2)cc1N(CC)CCN(C)C .
[A] active

[Q] Next entry: CN(C)c1ccc(C(=C2C=CC(=[N+](C)C)C=C2)c2ccc(N(C)C)cc2)cc1
[A] active

[Q] Next entry: O=c1[nH]sc2ccccc12
[A] active

[Q] Next entry: COc1cccc([C@H](O)C2CCN(CCc3ccc(F)cc3)CC2)c1OC
[A] active

[Q] Next entry: COc1cc(C(=O)NC2CCN(C)CC2)ccc1Nc1ncc2c(n1)N(C1CCCC1)CC(F)(F)C(=O)N2C
[A] active

[Q] Next entry: CN(C)C(=O)C1(N2CCCCC2)CCN(CC[C@@]2(c3ccc(Cl)c(Cl)c3)CN(C(=O)c3ccccc3)CCO2)CC1
[A] active

[Q] Next entry: CCCCOC(=O)c1ccc(O)cc1
[A] inactive

[Q] Next entry: CC1=CC(=O)/C(=C(/C)O)C(=O)O1
[A] inactive

[Q] Next entry: NC(=O)c1nc(-c2cccc(-c3cc(F)ccc3OCC(F)(F)C(F)(F)F)c2)n[nH]1
[A] active

[Q] Next entry: Cc1cn([C@H]2C[C@H](N=[N+]=[N-])[C@@H](CO)O2)c(=O)[nH]c1=O
[A] inactive
